Each recorded value in this set is attributed to ChEMBL document CHEMBL5058577.

Reported Population Apoptotic (%) values for a set of molecules
tested on: HEK-293T; test: Multiplex assay against HEK293T; assay type: toxicity, cell-based; conditions: human, 48 h, 10 µM, compound concentration 10 uM, replicate 1

| molecule | Population Apoptotic (%) |
| --- | --- |
| O=C(NCCNCC(O)COc1ccc(O)cc1)N1CCOCC1.O=C(NCCNCC(O)COc1ccc(O)cc1)N1CCOCC1.O=C(O)/C=C/C(=O)O (stereo not drawn) [XAMOTEROL FUMARATE] | 17 |
| CCc1nn2c(C)cc(C)nc2c1Cc1ccc(-c2nnc(C3CCNCC3)o2)cc1 | 54 |
| CN1CCN2c3ccccc3Cc3ccccc3C2C1.Cl (stereo not drawn) [MIANSERIN HYDROCHLORIDE] | 24 |
| Nc1nc(CC(=O)Nc2ccc(CCNC[C@H](O)c3ccccc3)cc2)cs1 [MIRABEGRON] | 26 |
| Cl.Cl.OCCOCCN1CCN(C(c2ccccc2)c2ccc(Cl)cc2)CC1 (stereo not drawn) [HYDROXYZINE HYDROCHLORIDE] | 38 |
| COC(c1ccccc1)(c1ccccc1)[C@H](Oc1nc(C)cc(C)n1)C(=O)O [AMBRISENTAN] | 26 |
| COc1cc2nc(N3CCN(C(=O)c4ccco4)CC3)nc(N)c2cc1OC.Cl [PRAZOSIN HYDROCHLORIDE] | 33 |
| COc1cc2nc(N3CCN(C(=O)COc4c(OC)cccc4C(C)C)CC3)nc(N)c2cc1OC.Cl.Cl | 31 |

###

system: HEK-293T; assay: Multiplex assay against HEK293T; format: toxicity, cell-based; conditions: human, 12 h, 10 µM, compound concentration 10 uM, replicate 1
With a cut-off of 60%, any Population Apoptotic (%) strictly below it is called yes; any Population Apoptotic (%) meeting it or above is called no.

| molecule | assignedClass |
| --- | --- |
| S=C(NCCCc1c[nH]cn1)NCCCN(Cc1ccc(Cl)c(Cl)c1)c1ccc(Br)cn1 | no |
| COCCCN1CCC(NC(=O)c2cc(Cl)c(N)c3c2OCC3)CC1 [PRUCALOPRIDE] | yes |
| Cc1sc2c(c1C)C(c1ccc(Cl)cc1)=N[C@H](CC(=O)OC(C)(C)C)c1nnc(C)n1-2 | yes |
| C=CCN1C[C@H](C(=O)N(CCCN(C)C)C(=O)NCC)C[C@@H]2c3cccc4[nH]cc(c34)C[C@H]21 [CABERGOLINE] | yes |
| COc1ccc2[nH]c(I)c(CCNC(C)=O)c2c1 [IODOMELATONIN] | yes |
| COc1cc(C(=O)N2CC[C@@H](O)[C@@H](N)C2)cc2nc(-c3cc4ccccc4n3CC3CC3)n(C)c12.Cl | no |
| Cn1cc(C(=O)OCC2CCN(CCNS(C)(=O)=O)CC2)c2ccccc21 | yes |

###

system: U2OS; test: Multiplex assay against U2OS; assay type: toxicity, cell-based; conditions: human, 48 h, 10 µM, compound concentration 10 uM, replicate 2
Non-standard residues stand in square brackets, D forms with d. Residues, ends and D or L forms follow the SMILES beside them.

| compound | assayedSystem | Population Healthy Nuclei (%) |
| --- | --- | --- |
| COc1cc2nc(N3CCN(C(=O)COc4c(OC)cccc4C(C)C)CC3)nc(N)c2cc1OC.Cl.Cl | U2OS | 23 |
| CN(C)C/C=C/C(=O)Nc1ccc(C(=O)N2CCCC(Nc3ncc(Cl)c(-c4c[nH]c5ccccc45)n3)C2)cc1 (stereo not given) | U2OS | 18 |
| COc1cc(OC2CCN(C(C)=O)CC2)ccc1C(=O)N1CCC(N2C(=O)OCc3ccccc32)CC1 | U2OS | 78 |
| Cc1ccc(OCC(O)C(C)NC(C)C)c2c1CCC2.Cl (stereo not given) | U2OS | 73 |
| O=C(O)CCC/C=C\CC1C(O)CC(O)C1/C=C/C(O)COc1cccc(Cl)c1 (stereo not given) | U2OS | 82 |
| CN(C)C(=O)Cn1cc(-c2ccc(-c3nnc4ccccn34)cc2)cn1 | U2OS | 81 |
| CC(C)C[C@@H]1NC(=O)[C@@H](C(C)C)NC(=O)[C@@H]2CCCN2C(=O)[C@@H](CC(=O)O)NC(=O)[C@@H](Cc2c[nH]c3ccccc23)NC1=O [BQ-123] (cyclo(L[dW][dD]P[dV])) | U2OS | 66 |
| Nc1nc(-c2ccco2)c2cnn(Cc3ccccc3F)c2n1 | U2OS | 69 |
| CCn1c(-c2nc3cc(C(=O)N4CCCC(N)C4)ccc3n2C)cc2ccccc21.Cl (stereo not given) | U2OS | 64 |
| COc1ccc2c(c1OCc1ccccc1)C[C@@H](C(=O)O)N(C(=O)C(c1ccccc1)c1ccccc1)C2 | U2OS | 77 |
| Nc1nc(CC(=O)Nc2ccc(CCNC[C@H](O)c3ccccc3)cc2)cs1 | U2OS | 78 |
| CN1CCN2c3ccccc3Cc3ccccc3C2C1.Cl (stereo not given) [MIANSERIN HYDROCHLORIDE] | U2OS | 73 |
| COC(c1ccccc1)(c1ccccc1)[C@H](Oc1nc(C)cc(C)n1)C(=O)O | U2OS | 79 |
| C[C@@H]1CC(=O)Nc2cccc(-c3ccc4c(c3)c(-c3cnn(C)c3)nn4C)c2N1 | U2OS | 71 |
| COCCCN1CCC(NC(=O)c2cc(Cl)c(N)c3c2OCC3)CC1 [PRUCALOPRIDE] | U2OS | 79 |
| CN1C[C@H](C(=O)N[C@]2(C)O[C@@]3(O)[C@@H]4CCCN4C(=O)[C@H](Cc4ccccc4)N3C2=O)C[C@@H]2c3cccc4[nH]cc(c34)C[C@H]21.CS(=O)(=O)O [DIHYDROERGOTAMINE MESYLATE] | U2OS | 72 |
| C=CCN1C[C@H](C(=O)N(CCCN(C)C)C(=O)NCC)C[C@@H]2c3cccc4[nH]cc(c34)C[C@H]21 | U2OS | 66 |
| COc1c(Nc2ccc(S(C)(=O)=O)nc2C)ncnc1OC1CCN(C(=O)OC(C)C)CC1 | U2OS | 77 |
| CCc1nn2c(C)cc(C)nc2c1Cc1ccc(-c2nnc(C3CCNCC3)o2)cc1 | U2OS | 71 |
| O=c1ccc2ccc(OCCCCN3CCN(c4cccc5sccc45)CC3)cc2[nH]1 | U2OS | 14 |
| Cc1cc(O)c(-c2ccc([C@@H](C)CN(C)C)cc2)c2c1[nH]c(=O)c1sccc12 | U2OS | 13 |
| Cc1cc(=O)n(C)c2cc(N3C(=O)CC[C@H](NS(=O)(=O)CC(C)C)[C@H]3c3ccc(Cl)cc3)ccc12 | U2OS | 60 |
| CSc1nc(NC2CCCC2)c([N+](=O)[O-])c(NC2CCCC2)n1 | U2OS | 81 |
| O=C(Nc1cc(-c2ccccc2)nn1-c1ccccc1F)c1ccc([N+](=O)[O-])cc1 | U2OS | 76 |
| CC(C)C[C@H](CO)Nc1nc(S[C@@H](C)c2ccccc2)nc2nc(N)sc12 | U2OS | 74 |
| COc1ccc2[nH]c(I)c(CCNC(C)=O)c2c1 | U2OS | 65 |
| C[C@H](NC(=O)CNC(=O)c1cccc(Cl)c1)c1ccccc1 | U2OS | 80 |
| Cc1sc2c(c1C)C(c1ccc(Cl)cc1)=N[C@H](CC(=O)OC(C)(C)C)c1nnc(C)n1-2 | U2OS | 68 |
| O=c1nc2[nH]c3ccccc3nc-2c(=O)[nH]1 | U2OS | 79 |
| OCCCNc1cc(-c2ccnc(Nc3cccc(Cl)c3)n2)ccn1 | U2OS | 25 |

###

test system: U2OS; assay: Multiplex assay against U2OS; format: toxicity, cell-based; conditions: human, 12 h, 10 µM, compound concentration 10 uM, replicate 1
Reported Population Apoptotic (%) values for a set of molecules

| compoundStructureString | Population Apoptotic (%) |
| --- | --- |
| Nc1nc(-c2ccco2)c2cnn(Cc3ccccc3F)c2n1 | 87 |
| Cc1cc(-c2ccc3c(c2)CC[C@H]3N2CC3(CCN(C(=O)Cc4cn5cc(C)sc5n4)CC3)C2)ncn1 | 61 |
| Cc1nn(C)c2nc(NNC(=O)Nc3cc(Cl)nc(Cl)c3)cc(C(C)C)c12 | 77 |
| Cc1c(Cc2ccc3ccccc3n2)c2cc(F)ccc2n1CC(=O)O | 75 |
| CSc1nc(NC2CCCC2)c([N+](=O)[O-])c(NC2CCCC2)n1 | 88 |
| Cn1cc(C(=O)OCC2CCN(CCNS(C)(=O)=O)CC2)c2ccccc21 | 53 |
| S=C(NCCCc1c[nH]cn1)NCCCN(Cc1ccc(Cl)c(Cl)c1)c1ccc(Br)cn1 | 66 |
| COc1ccc2c(c1OCc1ccccc1)C[C@@H](C(=O)O)N(C(=O)C(c1ccccc1)c1ccccc1)C2 | 78 |
| CN1CCN(c2ccc(Nc3c4ccccc4nc4ccccc34)cc2)CC1.Cl.Cl.O | 93 |
